src = ChEMBL document CHEMBL4261572

Molecular target: Cholinesterase (Homo sapiens, UniProt P06276)
Sequence (P06276 whole entry): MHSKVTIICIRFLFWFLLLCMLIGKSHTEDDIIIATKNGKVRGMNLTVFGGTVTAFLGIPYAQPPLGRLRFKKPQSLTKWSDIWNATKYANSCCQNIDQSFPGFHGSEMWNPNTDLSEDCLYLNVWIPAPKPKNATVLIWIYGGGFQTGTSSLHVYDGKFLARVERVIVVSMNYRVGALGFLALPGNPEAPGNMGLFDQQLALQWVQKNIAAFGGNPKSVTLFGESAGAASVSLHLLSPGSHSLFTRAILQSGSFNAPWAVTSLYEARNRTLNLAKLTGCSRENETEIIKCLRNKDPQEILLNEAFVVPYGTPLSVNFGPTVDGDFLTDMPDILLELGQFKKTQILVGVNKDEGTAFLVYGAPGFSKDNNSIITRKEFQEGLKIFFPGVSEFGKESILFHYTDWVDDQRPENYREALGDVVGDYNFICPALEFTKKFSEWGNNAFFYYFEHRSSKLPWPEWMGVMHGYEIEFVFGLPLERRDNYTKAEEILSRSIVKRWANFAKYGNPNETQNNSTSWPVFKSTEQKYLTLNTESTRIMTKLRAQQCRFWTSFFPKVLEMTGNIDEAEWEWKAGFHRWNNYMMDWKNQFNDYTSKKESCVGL
Assay Metric: IC50 (nM)
Express your answer in nM, writing the number without its unit.

Q: Suppose we examine the molecule CCN(CC)c1ccc(/C=C/c2cc(N3CCCCC3)c3ccccc3n2)cc1 ; what IC50 value has been reported?
A: 200

* * *

Biological target: Acetylcholinesterase (Rattus norvegicus)
Sequence (P37136 whole entry): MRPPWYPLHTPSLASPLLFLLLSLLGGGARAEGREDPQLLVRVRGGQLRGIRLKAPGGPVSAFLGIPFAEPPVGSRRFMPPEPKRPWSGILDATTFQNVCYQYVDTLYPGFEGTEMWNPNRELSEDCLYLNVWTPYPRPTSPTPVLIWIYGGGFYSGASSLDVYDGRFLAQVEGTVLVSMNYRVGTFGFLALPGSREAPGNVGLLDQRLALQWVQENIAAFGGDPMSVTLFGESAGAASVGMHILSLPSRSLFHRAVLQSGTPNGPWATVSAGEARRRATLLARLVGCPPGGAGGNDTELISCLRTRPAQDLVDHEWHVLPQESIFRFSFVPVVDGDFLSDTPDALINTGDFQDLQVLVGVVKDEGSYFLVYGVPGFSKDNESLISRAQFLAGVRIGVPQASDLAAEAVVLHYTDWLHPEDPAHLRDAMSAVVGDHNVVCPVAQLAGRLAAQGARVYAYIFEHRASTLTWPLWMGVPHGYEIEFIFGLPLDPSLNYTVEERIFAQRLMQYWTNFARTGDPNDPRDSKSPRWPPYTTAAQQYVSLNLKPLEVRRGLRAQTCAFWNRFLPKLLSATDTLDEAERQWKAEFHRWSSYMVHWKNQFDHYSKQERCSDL
Experiment: Inhibition of rat brain AChE
Assay Metric: IC50 (nM)
Express your answer in nM, writing the number without its unit.

Q: Suppose we examine the molecule C#CCN(C)Cc1ccc(OC(=O)N(C)C)c2ncccc12 ; what IC50 value has been reported?
A: 500

* * *

Molecular target: Cholinesterase (Equus caballus, UniProt P81908)
Sequence (P81908 whole entry): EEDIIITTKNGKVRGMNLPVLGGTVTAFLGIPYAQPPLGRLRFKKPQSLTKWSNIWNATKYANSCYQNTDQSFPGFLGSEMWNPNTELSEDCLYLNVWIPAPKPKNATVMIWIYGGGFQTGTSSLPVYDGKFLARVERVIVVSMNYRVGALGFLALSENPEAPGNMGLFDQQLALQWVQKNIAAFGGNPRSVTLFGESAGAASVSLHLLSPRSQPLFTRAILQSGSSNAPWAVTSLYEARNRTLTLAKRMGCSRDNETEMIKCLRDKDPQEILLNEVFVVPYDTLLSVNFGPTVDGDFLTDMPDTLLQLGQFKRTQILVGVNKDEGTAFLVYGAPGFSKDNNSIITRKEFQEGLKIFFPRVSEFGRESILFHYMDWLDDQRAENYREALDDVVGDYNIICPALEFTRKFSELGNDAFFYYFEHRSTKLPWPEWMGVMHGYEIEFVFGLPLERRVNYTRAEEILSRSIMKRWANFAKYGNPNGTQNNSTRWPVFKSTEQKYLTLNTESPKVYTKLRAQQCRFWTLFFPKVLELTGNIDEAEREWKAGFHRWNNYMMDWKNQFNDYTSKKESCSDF
Test: Inhibition of horse serum BChE after 15 mins by DTNB reagent based assay
Assay Metric: IC50 (µM)
Express your answer in µM, writing the number without its unit.

Check out these entries, answers already filled in.
Compound | Unit Info | IC50
CN(CCCC(=O)N1CCN(c2c3c(nc4ccccc24)CCCC3)CC1)Cc1cn(-c2ccnc3cc(Cl)ccc23)nn1 | µM | 61.1
O=C(CCCCc1cn(-c2ccnc3cc(Cl)ccc23)nn1)NCCNc1c2c(nc3cc(Cl)ccc13)CCCC2 | µM | 6.06
Clc1ccc2c(-n3cc(CCCCN4CCN(c5c6c(nc7ccccc57)CCCC6)CC4)nn3)ccnc2c1 | µM | 66.7

Q: Observed IC50 on Cholinesterase (Equus caballus, UniProt P81908) for Clc1ccc2c(-n3cc(CCCN4CCN(c5c6c(nc7ccccc57)CCCC6)CC4)nn3)ccnc2c1 , please.
A: 3.61

* * *

Molecular target: Acetylcholinesterase (Electrophorus electricus)
Sequence (O42275 whole entry): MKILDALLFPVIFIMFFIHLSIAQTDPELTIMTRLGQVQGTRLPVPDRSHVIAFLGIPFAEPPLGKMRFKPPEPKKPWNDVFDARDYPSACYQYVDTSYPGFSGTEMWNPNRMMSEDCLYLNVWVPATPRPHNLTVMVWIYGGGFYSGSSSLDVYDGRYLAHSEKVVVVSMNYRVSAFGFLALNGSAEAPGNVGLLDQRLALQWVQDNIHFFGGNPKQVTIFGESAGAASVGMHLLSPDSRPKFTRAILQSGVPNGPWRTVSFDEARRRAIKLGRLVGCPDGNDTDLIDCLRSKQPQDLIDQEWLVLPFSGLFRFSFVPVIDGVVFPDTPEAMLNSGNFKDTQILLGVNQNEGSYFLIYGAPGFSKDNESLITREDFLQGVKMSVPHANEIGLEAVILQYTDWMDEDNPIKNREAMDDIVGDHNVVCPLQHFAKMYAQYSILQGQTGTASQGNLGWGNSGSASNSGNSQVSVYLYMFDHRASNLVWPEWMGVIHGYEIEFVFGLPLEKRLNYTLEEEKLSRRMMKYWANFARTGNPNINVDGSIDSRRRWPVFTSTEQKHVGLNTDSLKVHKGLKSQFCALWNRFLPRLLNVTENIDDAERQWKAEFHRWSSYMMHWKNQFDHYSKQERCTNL
Assay: Inhibition of electric eel AChE after 15 mins by DTNB reagent based assay
Listed compounds paired with reported IC50

Compound | Assay Metric | Assay Value
CN(CCCC(=O)N1CCN(c2c3c(nc4ccccc24)CCCC3)CC1)Cc1cn(-c2ccnc3cc(Cl)ccc23)nn1 | IC50 | > 100 µM

Q: Suppose we examine the compound Clc1ccc2c(-n3cc(CCCN4CCN(c5c6c(nc7ccccc57)CCCC6)CC4)nn3)ccnc2c1 ; what IC50 value has been reported?
A: 4.89 µM

Q: Entry Clc1ccc2c(-n3cc(CCCCN4CCN(c5c6c(nc7ccccc57)CCCC6)CC4)nn3)ccnc2c1 please
A: 10 µM

Q: Entry O=C(CCCCc1cn(-c2ccnc3cc(Cl)ccc23)nn1)N1CCN(c2c3c(nc4cc(Cl)ccc24)CCCC3)CC1 please
A: 18.7 µM

* * *

Molecular target: Acetylcholinesterase (Homo sapiens)
Sequence (P22303 whole entry): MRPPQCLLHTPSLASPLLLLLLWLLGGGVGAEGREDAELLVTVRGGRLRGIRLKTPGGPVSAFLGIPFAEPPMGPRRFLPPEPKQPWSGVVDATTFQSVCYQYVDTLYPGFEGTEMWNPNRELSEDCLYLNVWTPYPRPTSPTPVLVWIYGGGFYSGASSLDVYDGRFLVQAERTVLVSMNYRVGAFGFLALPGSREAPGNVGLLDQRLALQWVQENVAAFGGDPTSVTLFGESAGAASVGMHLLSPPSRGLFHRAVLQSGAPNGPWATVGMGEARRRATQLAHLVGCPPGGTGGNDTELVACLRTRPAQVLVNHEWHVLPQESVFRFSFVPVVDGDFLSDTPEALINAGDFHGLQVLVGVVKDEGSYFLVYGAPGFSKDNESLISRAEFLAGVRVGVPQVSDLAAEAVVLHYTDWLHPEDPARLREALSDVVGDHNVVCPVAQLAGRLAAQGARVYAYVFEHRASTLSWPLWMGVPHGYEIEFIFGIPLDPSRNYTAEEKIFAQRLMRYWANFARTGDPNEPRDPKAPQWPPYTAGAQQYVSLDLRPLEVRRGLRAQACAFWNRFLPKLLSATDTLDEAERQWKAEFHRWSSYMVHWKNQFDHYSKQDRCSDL
Assay Metric: pIC50
The quantity pIC50 is defined as the negative base-10 logarithm of the molar concentration.

Q: Observed pIC50 on Acetylcholinesterase (Homo sapiens) for CCN(CC)c1ccc(/C=C/c2cc(N3CCCCC3)c3ccccc3n2)cc1 , please.
A: 4.19

* * *

Biological target: Cholinesterase (Equus caballus)
Test: Inhibition of horse serum BChE after 15 mins by DTNB reagent based assay
Assay Metric: IC50

Compound | Subject Of Test | Assay Value
Clc1ccc2c(-n3cc(CCCCN4CCN(c5c6c(nc7cc(Cl)ccc57)CCCC6)CC4)nn3)ccnc2c1 | Cholinesterase (Equus caballus) | > 100 µM

Q: Observed IC50 on Cholinesterase (Equus caballus) for O=C(CCCCc1cn(-c2ccnc3cc(Cl)ccc23)nn1)N1CCN(c2c3c(nc4ccccc24)CCCC3)CC1 , please.
A: > 100 µM

Q: Entry O=C(CCCCc1cn(-c2ccnc3cc(Cl)ccc23)nn1)N1CCN(c2c3c(nc4cc(Cl)ccc24)CCCC3)CC1 please
A: > 100 µM
